Experiment: Chemical stability assessment of peptides (relative purity loss)
Type: physicochemical
Conditions: 50 mM phosphate buffer pH 7.4 + acetonitrile (1:1); 24 hours at 37° C.
Positions of bridges follow the written chain, without caps; N, C: chain ends. Non-standard residues stand in square brackets, D forms with d. Residues, ends and D or L forms follow the SMILES beside them. *: point of attachment. Trp(7-Me) = Cc1cccc2c(C[C@H](N)C(=O)O)c[nH]c12; 2Nal = N[C@@H](Cc1ccc2ccccc2c1)C(=O)O; Thp = NC1(C(=O)O)CCOCC1; Me2NCH2CH2 = CN(C)CC*; Ava = NCCCCC(=O)O; βAla = NCCC(=O)O
value_kind: Chemical stability (relative purity loss) Buffer pH 7.4 (%)
Form entry: value (%) — number only.

Query Chemical stability (relative purity loss) Buffer pH 7.4 for CC(=O)NCCCC[C@@H]1NC(=O)[C@H](Cc2c[nH]c3c(C)cccc23)NC(=O)[C@H]([C@@H](C)O)NC(=O)[C@H](CC(N)=O)NC(=O)[C@@H]2CSSC[C@H](NC1=O)C(=O)N[C@@H](Cc1ccc(OCCN(C)C)cc1)C(=O)N[C@@H](Cc1ccc3ccccc3c1)C(=O)NC1(CCOCC1)C(=O)N[C@H](C(=O)N[C@@H](CC(N)=O)C(=O)N[C@@H](Cc1c[nH]cn1)C(=O)NCCC(N)=O)CCC(=O)NCCCCC(=O)N2 [compound 49] ([Ava]CNT[Trp(7-Me)]K(Ac)CY(Me2NCH2CH2)[2Nal][Thp]ENH[βAla]-NH2; disulfide 2-7; lactam N-11)
1.4

Where do the numbers come from? From patent US20260258084A1.
